What N-term IgG was measured for each of the following?
Study Target: T1, B3GNT2 (Homo sapiens, UniProt Q9NY97)
T1 construct: The respective ORFs of candidate genes [CD274 (NM_014143), MCL1 (NM_021960), JUNB (NM_002229), and B3GNT2 (NM_006577)] were synthesized; expressed in transfected cells; host or cells: A375 melanoma cells (lentiviral ORF overexpression)
T1 sequence (Q9NY97 1-397): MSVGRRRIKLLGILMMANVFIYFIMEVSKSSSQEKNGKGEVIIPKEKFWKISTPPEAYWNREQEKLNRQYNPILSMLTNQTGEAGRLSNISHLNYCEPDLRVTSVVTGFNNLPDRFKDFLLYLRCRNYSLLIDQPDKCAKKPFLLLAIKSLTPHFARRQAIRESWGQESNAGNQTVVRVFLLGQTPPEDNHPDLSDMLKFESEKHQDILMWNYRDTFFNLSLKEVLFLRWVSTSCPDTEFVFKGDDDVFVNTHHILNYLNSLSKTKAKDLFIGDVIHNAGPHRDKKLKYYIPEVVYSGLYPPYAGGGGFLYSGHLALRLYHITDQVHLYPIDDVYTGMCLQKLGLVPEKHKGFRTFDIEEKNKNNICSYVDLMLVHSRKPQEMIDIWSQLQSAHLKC
Procedure Summary: Co-IP of FLAG-tagged B3GNT2 followed by mass spectrometry
Assay type: cell-based
Run Parameters: Co-IP with IgG control antibody, N-terminally FLAG-tagged B3GNT2; mass spectrometry count, unit not given

>  <Molecule>
SLC25A5 (protein) TDAAVSFAKDFLAGGVAAAISKTAVAPIERVKLLLQVQHASKQITADKQYKGIIDCVVRIPKEQGVLSFWRGNLANVIRYFPTQALNFAFKDKYKQIFLGGVDKRTQFWLYFAGNLASGGAAGATSLCFVYPLDFARTRLAADVGKAGAEREFRGLGDCLVKIYKSDGIKGLYQGFNVSVQGIIIYRAAYFGIYDTAKGMLPDPKNTHIVISWMIAQTVTAVAGLTSYPFDTVRRRMMMQSGRKGTDIMYTGTLDCWRKIARDEGGKAFFKGAWSNVLRGMGGAFVLVLYDEIKKYT

>  <Observed Measurement>
6

$$$$

Consider now this further molecule.
N-term IgG in this record for SRSF7 (protein) MSRYGRYGGETKVYVGNLGTGAGKGELERAFSYYGPLRTVWIARNPPGFAFVEFEDPRDAEDAVRGLDGKVICGSRVRVELSTGMPRRSRFDRPPARRPFDPNDRCYECGEKGHYAYDCHRYSRRRRSRSRSRSHSRSRGRRYSRSRSRSRGRRSRSASPRRSRSISLRRSRSASLRRSRSGSIKGSRYFQSPSRSRSRSRSISRPRSSRSKSRSPSPKRSRSPSGSPRRSASPERMD : 0

All figures here come from patent US20240261333A1.
